Target: T1, mouse C2 (mouse, UniProt P21180 19-760, limits assumed)
T1 sequence (looked up): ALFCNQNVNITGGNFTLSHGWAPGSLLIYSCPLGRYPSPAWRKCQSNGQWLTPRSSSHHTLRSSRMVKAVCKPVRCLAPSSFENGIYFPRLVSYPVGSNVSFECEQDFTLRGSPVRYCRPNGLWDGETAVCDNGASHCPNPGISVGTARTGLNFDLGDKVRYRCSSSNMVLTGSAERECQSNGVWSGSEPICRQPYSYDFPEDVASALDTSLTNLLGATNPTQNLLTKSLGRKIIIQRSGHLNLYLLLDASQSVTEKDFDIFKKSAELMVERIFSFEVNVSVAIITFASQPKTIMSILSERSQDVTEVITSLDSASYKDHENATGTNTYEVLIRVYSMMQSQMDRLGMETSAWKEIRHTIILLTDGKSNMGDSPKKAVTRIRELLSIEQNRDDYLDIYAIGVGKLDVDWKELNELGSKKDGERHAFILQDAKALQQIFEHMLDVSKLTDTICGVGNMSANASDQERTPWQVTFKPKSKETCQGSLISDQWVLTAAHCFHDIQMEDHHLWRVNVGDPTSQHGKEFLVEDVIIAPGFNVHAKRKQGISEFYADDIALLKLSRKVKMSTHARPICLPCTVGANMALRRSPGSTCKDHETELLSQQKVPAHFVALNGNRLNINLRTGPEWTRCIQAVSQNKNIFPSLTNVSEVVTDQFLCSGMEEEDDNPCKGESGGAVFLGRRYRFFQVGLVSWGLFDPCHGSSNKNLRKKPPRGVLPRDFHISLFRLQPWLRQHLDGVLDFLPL
Test: SPR, mouse C2, pH 7.3; VWB = very weak binding, KD not determined

>  <Binder>
RF16-203G (antibody, V domains shown) VH: EVQLLESGGGLVQPGGSLRLSCAASGFTFSRYYMMWVRQAPGKGLEWVSSIGSSGGTTNYADSVKGRFTISRDNSKNTLYLQMNSLRAEDTAVYYCAKGGMVLGVVNIWGQGTLVTVSS VL: SYELTQPPSVSVSPGQTASITCSGDKLGEKYVSWYQQKPGQSPVLVIYQDIKRPSGIPERFSGSNSGNTATLTISGTQAMDEADYYCQTWGTGGIQVFGGGTKLTVLG

>  <binding result>
binds

$$$$
